Test system: SF-268 CNS
Experiment summary: NCI-60 one-dose screen, 48 h (100 = growth as untreated, 0 = no growth, -100 = all killed)
Measurement conditions: 10 µM unless noted
Protocol: Cells are grown in 96 well plates and exposed to the test compound for 48 hours. Compounds are tested at a single concentration, which is 10^-5 M for most compounds. The reported endpoint is percent growth (GI% or GIPRCNT), where numbers from 0 - 100% represent growth inhibition, and numbers from -100% - 0 represent cell death. For example, a value of 40 represents 60% growth inhibition. A value of 0 means no net growth occurred over the course of the experiment. […]
About 83,000 compounds went through this panel and 20% of them were active in at least one assay; those are over-represented in the sample as a whole. Active and inactive are the calls of the source. The calls were made as follows: active = growth percent below 10; inactive = the rest.
Recorded endpoint: growth

[[record]]
molecule = "Cn1cc(-c2nonc2-c2c[nH]c3ccccc23)c2cccnc21"
result = "56.5% (inactive)"

[[record]]
molecule = "CSc1nc(NCCO)c(C#N)c(-c2cccc([N+](=O)[O-])c2)n1"
result = "95.6% (inactive)"

[[record]]
molecule = "Clc1ccc2c(NCCNc3nc(N4CCOCC4)nc4ccccc34)ccnc2c1"
result = "11.5% (inactive)"

[[record]]
molecule = "CNC(=O)c1cc(Oc2ccc(NC(=O)Nc3ccc(Cl)c(SC)c3)c(F)c2)ccn1"
result = "50.6% (inactive)"

[[record]]
molecule = "Cc1nn(-c2cc(=O)[nH]c3ccc(Cl)cc23)c(N)c1C#N"
result = "102% (inactive)"

[[record]]
molecule = "CCN(CC)c1ccc(/C=N\\NC(=O)/C=C/C=C/c2ccc3c(c2)OCO3)c(O)c1"
result = "33.7% (inactive)"

[[record]]
molecule = "COc1ccc(Nc2cc(C)nc(N3CCN(c4ccnc5cc(Cl)ccc45)CC3)n2)cc1"
result = "52.6% (inactive)"

[[record]]
molecule = "Cc1nc2c3c(-c4ccccc4)c(-c4ccccc4)oc3ncn2n1"
result = "94% (inactive)"

[[record]]
molecule = "Cn1cc(-c2nonc2-c2c[nH]c3ccc(F)cc23)c2cccnc21"
result = "78.3% (inactive)"

[[record]]
molecule = "COc1ccc(SC2c3ccc(C)cc3Oc3nc(N)c(C#N)c(N)c32)cc1 (stereo not given)"
result = "2.01% (active)"


====

Test system: DU-145 prostate
Experiment summary: NCI-60 one-dose screen, 48 h (100 = growth as untreated, 0 = no growth, -100 = all killed)
Measurement conditions: 10 µM unless noted
This is part of a sample that, as a whole, favours compounds with a hit. Of some 83,000 tested, about 20% had one in any assay.
Recorded endpoint: growth (%)

[[record]]
compound = "COc1ccc(SC2c3ccc(C)cc3Oc3nc(N)c(C#N)c(N)c32)cc1 (stereo not drawn)"
tested_system = "DU-145 prostate"
unit_label = "%"
quantitative_readout = -88.3

[[record]]
compound = "O=c1cc(CSc2nnc(SCc3cc(=O)oc4c3ccc3ccccc34)o2)c2ccc3ccccc3c2o1"
tested_system = "DU-145 prostate"
unit_label = "%"
quantitative_readout = 109

[[record]]
compound = "O=C(NCCN1CCOCC1)Nc1ccc(-c2cc3c(Nc4ccc(Oc5cccc(C(F)(F)F)c5)c(Cl)c4)ncnc3s2)cc1"
tested_system = "DU-145 prostate"
unit_label = "%"
quantitative_readout = 44.7

[[record]]
compound = "O=C1/C(=C/c2cn(-c3ccccc3)nc2-c2ccccc2)SC(=S)N1CCc1ccccc1"
tested_system = "DU-145 prostate"
unit_label = "%"
quantitative_readout = 110

[[record]]
compound = "O=c1cc(/C(=C2/C=CC=N2)c2ccc[nH]2)c2cc(Cl)ccc2o1"
tested_system = "DU-145 prostate"
unit_label = "%"
quantitative_readout = 47

[[record]]
compound = "O=S(=O)(Nc1ccc(Cl)c(F)c1)c1ccc(-c2cnc(C3CC3)o2)cc1"
tested_system = "DU-145 prostate"
unit_label = "%"
quantitative_readout = 16.6

[[record]]
compound = "O=C1OCC2=C1C(c1ccncc1)c1cc3c(cc1N2CCO)OCO3 (stereo not drawn)"
tested_system = "DU-145 prostate"
unit_label = "%"
quantitative_readout = 107

[[record]]
compound = "COc1ccc(O)c(N=Nc2nccs2)c1"
tested_system = "DU-145 prostate"
unit_label = "%"
quantitative_readout = 94.9


====

Form field: growth (one value per entry).
Tested on: MALME-3M melanoma
Experiment summary: NCI-60 one-dose screen, 48 h (100 = growth as untreated, 0 = no growth, -100 = all killed)
Measurement conditions: 10 µM unless noted
Procedure: Cells are grown in 96 well plates and exposed to the test compound for 48 hours. Compounds are tested at a single concentration, which is 10^-5 M for most compounds. The reported endpoint is percent growth (GI% or GIPRCNT), where numbers from 0 - 100% represent growth inhibition, and numbers from -100% - 0 represent cell death. For example, a value of 40 represents 60% growth inhibition. A value of 0 means no net growth occurred over the course of the experiment. […]
The panel holds about 83,000 compounds, 20% with a hit somewhere; the sample as a whole holds those more often.
Recorded endpoint: growth (%)

[[record]]
molecule = "Cc1cc2nc3[nH]c4ccccc4c3nc2cc1C"
tested_system = "MALME-3M melanoma"
recorded_endpoint = "growth"
quantitative_readout = 76.6

[[record]]
molecule = "CC1=NN(c2nc(-c3ccc(Cl)cc3)c(C#N)c(N3CCOCC3)n2)C(=O)C1"
tested_system = "MALME-3M melanoma"
recorded_endpoint = "growth"
quantitative_readout = 42

[[record]]
molecule = "Cn1ccnc1C(=O)/C=C/c1ccccc1"
tested_system = "MALME-3M melanoma"
recorded_endpoint = "growth"
quantitative_readout = 62.9

[[record]]
molecule = "Nc1n[nH]c2ccc([C@@H]3Nc4cc5c(cc4[C@H]4C6CCC(C6)[C@@H]34)C(=O)NC5)cc12 (stereo partly specified)"
tested_system = "MALME-3M melanoma"
recorded_endpoint = "growth"
quantitative_readout = 49.8

[[record]]
molecule = "CCOC(=O)n1cc(-c2nonc2-c2cn(C)c3ncccc23)c2ccccc21"
tested_system = "MALME-3M melanoma"
recorded_endpoint = "growth"
quantitative_readout = 84.4

[[record]]
molecule = "CCN(CC)c1ccc2c(c1)Oc1nc(N)c(C#N)c(N)c1C2Sc1ccc(SC)cc1 (stereo unspecified)"
tested_system = "MALME-3M melanoma"
recorded_endpoint = "growth"
quantitative_readout = -15.9


====

Test system: SF-295 CNS
Experiment summary: NCI-60 one-dose screen, 48 h (100 = growth as untreated, 0 = no growth, -100 = all killed)
Measurement conditions: 10 µM unless noted
The panel holds about 83,000 compounds, 20% with a hit somewhere; the sample as a whole holds those more often. Activity calls are given as the source filed them. The calls were made as follows: active = growth percent below 10; inactive = the rest.
Recorded endpoint: growth

[[record]]
molecule = "O=[N+]([O-])c1ccc(Nc2nc(NCCN3CCOCC3)ncc2[N+](=O)[O-])cc1"
recorded_endpoint = "growth"
result = "98.6% (inactive)"

[[record]]
molecule = "C=CC(=O)Nc1cccc(-c2nc(SC)nc(NCCN3CCOCC3)c2C#N)c1"
recorded_endpoint = "growth"
result = "106% (inactive)"

[[record]]
molecule = "O=C(Cc1ccccc1Nc1c(Cl)cccc1Cl)NN1C(=O)/C(=C/c2ccc(Br)cc2)SC1=S"
recorded_endpoint = "growth"
result = "101% (inactive)"

[[record]]
molecule = "COc1cc(/C=C/c2cc(O)c3cc(C(C)=O)c(=O)oc3c2)cc2c1O[C@]1(C)CC[C@@H](O)C(C)(C)[C@H]1C2"
recorded_endpoint = "growth"
result = "-63.3% (active)"

[[record]]
molecule = "Cn1cc(C(=O)c2nc(-c3c[nH]c4ccc(Br)cc34)no2)c2cc(F)ccc21"
recorded_endpoint = "growth"
result = "97.6% (inactive)"

[[record]]
molecule = "Cc1cc(C)nc(SC2=C(Nc3cccc(Cl)c3C)C(=O)N(Cc3ccccc3)C2=O)n1"
recorded_endpoint = "growth"
result = "-5.72% [30 µM] (active)"

[[record]]
molecule = "CSc1nc(Nc2cccc(NC(=O)CCl)c2)c(C#N)c(-c2cccc([N+](=O)[O-])c2)n1"
recorded_endpoint = "growth"
result = "95.4% (inactive)"

[[record]]
molecule = "COc1ccc(SC2c3cc(OC)c(OC)cc3Oc3nc(N)c(C#N)c(N)c32)cc1 (centres undefined)"
recorded_endpoint = "growth"
result = "-69.5% (active)"

[[record]]
molecule = "CCCCC(=O)OCC1OC(n2cnc3c(=S)nc[nH]c32)C(OC(=O)CCCC)C1OC(=O)CCCC (centres undefined)"
recorded_endpoint = "growth"
result = "30.3% (inactive)"


====

Test system: SK-MEL-2 melanoma
Experiment summary: NCI-60 one-dose screen, 48 h
Measurement conditions: 10 µM unless noted
About 83,000 compounds went through this panel and 20% of them were active in at least one assay; those are over-represented in the sample as a whole. The source made the active and inactive calls. The calls were made as follows: active = growth percent below 10; inactive = the rest.
Outcome codes: class 1 for active, class 0 for inactive

[[record]]
molecule = "OCC(O)c1nc2ccc3[nH]ncc3c2c2c1CCCC2 (stereo not drawn)"
tested_system = "SK-MEL-2 melanoma"
discrete_label = "class 1"

[[record]]
molecule = "N#Cc1nnn(-c2ccc(S(N)(=O)=O)cc2)c1NC(=O)CCl"
tested_system = "SK-MEL-2 melanoma"
discrete_label = "class 0"

[[record]]
molecule = "CSc1ccc(-c2n[nH]nc2-c2cc3ccccc3s2)cc1"
tested_system = "SK-MEL-2 melanoma"
discrete_label = "class 0"

[[record]]
molecule = "CCNC(=O)Oc1ccc(/C(=C(\\C)c2ccc(Cl)cc2)c2ccc(OCCN(CC)CC)cc2)cc1"
tested_system = "SK-MEL-2 melanoma"
discrete_label = "class 0"

[[record]]
molecule = "C=C1c2nc3ccccc3n2C=C(c2cccc(Cl)c2)N1Cc1ccc(OC)cc1"
tested_system = "SK-MEL-2 melanoma"
discrete_label = "class 0"

[[record]]
molecule = "COC(=O)c1ccc2oc(NC(=O)c3ccc(Nc4ccc([N+](=O)[O-])cc4C)c([N+](=O)[O-])c3)nc2c1"
tested_system = "SK-MEL-2 melanoma"
discrete_label = "class 0"

[[record]]
molecule = "COc1ccc(-c2nc3ccc(-c4nc5ccc(N6CCN(c7ccc(F)cc7)CC6)cc5[nH]4)cc3[nH]2)cc1OC"
tested_system = "SK-MEL-2 melanoma"
discrete_label = "class 0"

[[record]]
molecule = "COc1ccc(S(=O)(=O)N2CC3(COC3)C2)cc1NC(=O)c1[nH]c(C)c2c1CCCCC2=O"
tested_system = "SK-MEL-2 melanoma"
discrete_label = "class 0"


These entries and their values trace back to PubChem BioAssay (NCI).
